# subject-of-test: Bcl-2 protein (Recombinant Human Bcl-2 Protein) (Homo sapiens)
# Construct: purchased Novus Biologicals NBP2-34889
# Sequence (P10415 whole entry): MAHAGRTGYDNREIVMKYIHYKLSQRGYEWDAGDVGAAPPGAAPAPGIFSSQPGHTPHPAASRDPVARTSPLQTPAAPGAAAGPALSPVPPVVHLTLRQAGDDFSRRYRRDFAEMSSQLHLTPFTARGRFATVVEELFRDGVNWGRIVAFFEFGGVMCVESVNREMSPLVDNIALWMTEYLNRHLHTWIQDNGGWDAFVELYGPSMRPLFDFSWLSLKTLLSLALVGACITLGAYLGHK
# test-protocol: AS-MS evaluation of binding of the Example 4 mixture library (1200 compounds/well) to Bcl-2, ASMS ratio (%)
# experimental-context: AS-MS, Example 4 mixture library, Bcl-2, replicate n = 1
observed-property: ASMS ratio (%) n = 1
The reply should contain only the number, in %.

Some compounds with recorded ASMS ratio (%) n = 1:
# compound, ASMS ratio (%) n = 1
measured = [
    ("CCOc1cncc(-c2ccc(CN3CCN(c4ccc(C(=O)NS(=O)(=O)c5ccc(NCCSc6ccccc6)c(C(F)(F)F)c5)nn4)CC3)c(CC)c2)c1", 3.9),
    ("CCOc1cncc(-c2ccc(C(C)N3CCN(c4ccc(C(=O)NS(=O)(=O)CCC(F)(F)F)cc4)CC3)c(F)c2)c1 (centres unmarked)", 0.0),
    ("CCOc1cccc(-c2ccccc2CN2CCN(c3ccc(C(=O)NS(=O)(=O)CCC(F)(F)F)nn3)CC2)c1", 0.0),
    ("CCOc1cncc(-c2cc(CN3CCN(c4ccc(C(=O)NS(=O)(=O)C(C)(C)C)nn4)CC3)cc(OC(C)C)c2)c1", "−3.0"),
    ("CCOc1cccc(-c2cc(CN3CCN(c4ccc(C(=O)NS(=O)(=O)c5ccc(NCCSc6ccccc6)c(C(F)(F)F)c5)cc4)CC3)cc(OC(F)(F)F)c2)c1", 8.2),
    ("CCOc1cncc(-c2ccc(CN3CCN(c4ccc(C(=O)NS(=O)(=O)CCC(F)(F)F)nn4)CC3)c(OC)c2)c1", 0.0),
    ("CCOc1cncc(-c2cc(C(=O)N3CCN(c4ccc(C(=O)NS(=O)(=O)c5ccc(NCCSc6ccccc6)c(C(F)(F)F)c5)nn4)CC3)cc(C(C)(C)C)c2)c1", 9.1),
    ("CCOc1cncc(C#Cc2ccccc2CN2CCN(c3ccc(C(=O)NS(=O)(=O)C(C)(C)C)nn3)CC2)c1", 0.0),
    ("CCOc1cccc(-c2cc(CN3CCN(c4ccc(C(=O)NS(=O)(=O)CCC(F)(F)F)cc4)CC3)cc(OCC)c2)c1", 0.0),
    ("CCOc1cccc(-c2ccc(CN3CCN(c4ccc(C(=O)NS(=O)(=O)CCC(F)(F)F)nn4)CC3)c3ccccc23)c1", 0.0),
]

Give its ASMS ratio (%) n = 1 value. Item: `CCOc1cncc(-c2ccccc2CN2CCN(c3ccc(C(=O)NS(=O)(=O)c4ccc(NCCSc5ccccc5)c(C(F)(F)F)c4)cc3)CC2)c1`
−0.2

Can you look up the measured ASMS ratio (%) n = 1 of `CCOc1cncc(-c2ccc(C(=O)N3CCN(c4ccc(C(=O)NS(=O)(=O)c5ccc(NCCSc6ccccc6)c(C(F)(F)F)c5)cc4)CC3)cc2C)c1` for me?
1.7

Look up ASMS ratio (%) n = 1 for this compound: `CCOc1cncc(-c2ccccc2CCC(=O)N2CCN(c3ccc(C(=O)NS(=O)(=O)c4ccc(NCCSc5ccccc5)c(C(F)(F)F)c4)cc3)CC2)c1`
0.1

Entry under review: `CCOc1cncc(-c2ccc(CN3CCN(c4ccc(C(=O)NS(=O)(=O)c5ccc(NCCSc6ccccc6)c(C(F)(F)F)c5)cc4)CC3)c(OC)c2)c1` . Reported ASMS ratio (%) n = 1?
3.3

What value of ASMS ratio (%) n = 1 has been recorded for this entry: `CCOc1cccc(-c2ccc(CN3CCN(c4ccc(C(=O)NS(=O)(=O)CCC(F)(F)F)nn4)CC3)cc2C)c1`
0.0

Entry `CCOc1cccc(-c2ccc(C(=O)N3CCN(c4ccc(C(=O)NS(=O)(=O)c5ccc(NCCSc6ccccc6)c(C(F)(F)F)c5)nn4)CC3)cc2F)c1` : reported ASMS ratio (%) n = 1 = ?
44.0

Given the entry `CCOc1cncc(C#Cc2cc(C(=O)N3CCN(c4ccc(C(=O)NS(=O)(=O)c5ccc(NCCSc6ccccc6)c(C(F)(F)F)c5)cc4)CC3)cc(C(F)(F)F)c2)c1` , report its measured ASMS ratio (%) n = 1.
3.4

Consider the compound `CCOc1cncc(-c2cc(CN3CCN(c4ccc(C(=O)NS(=O)(=O)C(C)(C)C)nn4)CC3)cc(C(F)(F)F)c2)c1` and give its measured ASMS ratio (%) n = 1.
0.0

Can you look up the measured ASMS ratio (%) n = 1 of CCOc1cncc(-c2ccc(C(C)N3CCN(c4ccc(C(=O)NS(=O)(=O)c5ccc(NCCSc6ccccc6)c(C(F)(F)F)c5)cc4)CC3)c(F)c2)c1 (centres unmarked) for me?
0.6

Quick one: ASMS ratio (%) n = 1 for `CCOc1cncc(-c2ccc(C(=O)N3CCN(c4ccc(C(=O)NS(=O)(=O)CCC(F)(F)F)cc4)CC3)c3ccccc23)c1` ?
0.0

Quick check: ASMS ratio (%) n = 1 of `CCOc1cncc(-c2ccc(C(=O)N3CCN(c4ccc(C(=O)NS(=O)(=O)CCC(F)(F)F)nn4)CC3)cc2C)c1` ?
1.2

Given the entry `CCOc1cncc(-c2cc(OC)c(CN3CCN(c4ccc(C(=O)NS(=O)(=O)CCC(F)(F)F)nn4)CC3)c(OC)c2)c1` , report its measured ASMS ratio (%) n = 1.
0.0

Value lookup for ASMS ratio (%) n = 1; key = `CCOc1cncc(-c2ccc(C(=O)N3CCN(c4ccc(C(=O)NS(=O)(=O)c5ccc(NCCSc6ccccc6)c(C(F)(F)F)c5)nn4)CC3)c3ccccc23)c1`
18.6
